Assay: in vivo
Set-up: species or system female Fischer rats
Conditions: rat, iv, Thyroid, distribution of radioactivity
reported_metric: tissue uptake at 4 h (%ID/g)
Number only, in %ID/g; omit the unit.

Request: Fill in reported tissue uptake at 4 h for this entry: CC(C)(CCCCCCCCCCCCc1ccc(I)cc1)CC(=O)O [DMIPP]
Result: 22.9
